endpoint: Ki (µM)
Return type: number; implicit unit µM.

Provide value of Ki for this record tested with Induced myeloid leukemia cell differentiation protein Mcl-1 (Homo sapiens): `Cc1cc(OCCC(=O)O)cc(C)c1Cl`
Sequence (Q07820 whole entry): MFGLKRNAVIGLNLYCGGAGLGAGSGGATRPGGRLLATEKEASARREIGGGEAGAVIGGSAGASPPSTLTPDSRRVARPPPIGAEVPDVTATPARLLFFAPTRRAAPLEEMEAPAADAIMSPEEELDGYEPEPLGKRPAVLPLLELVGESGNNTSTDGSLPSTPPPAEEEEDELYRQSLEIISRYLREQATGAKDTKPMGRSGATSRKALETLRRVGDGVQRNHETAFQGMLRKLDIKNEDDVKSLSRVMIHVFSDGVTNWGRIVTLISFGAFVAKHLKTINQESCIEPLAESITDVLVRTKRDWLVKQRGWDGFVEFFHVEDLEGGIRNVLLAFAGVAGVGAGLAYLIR
60

Hi! What's the reported Ki for `Cc1cc(OCCCn2c(C(=O)O)cc3ccccc32)cc(C)c1Cl` on Induced myeloid leukemia cell differentiation protein Mcl-1 (Homo sapiens)?
0.41

Quick check: Ki on Induced myeloid leukemia cell differentiation protein Mcl-1 (Homo sapiens), item `c1ccc2c(CSc3ncn[nH]3)cccc2c1` ?
86

// map `O=C(O)c1c(CCCOc2cccc3ccccc23)c2ccccc2n1Cc1ccccc1` to recorded Ki (system: Induced myeloid leukemia cell differentiation protein Mcl-1 (Homo sapiens))
0.29

Lab request: please report Ki under test system Induced myeloid leukemia cell differentiation protein Mcl-1 (Homo sapiens) for `O=C(O)c1oc2ccccc2c1CCc1cccc2ccccc12`
9.5

API: value(readout=Ki, system=Induced myeloid leukemia cell differentiation protein Mcl-1 (Homo sapiens)) for record `O=C(O)c1sc2ccccc2c1CCc1cccc2ccccc12`
12.5

Under Induced myeloid leukemia cell differentiation protein Mcl-1 (Homo sapiens): Ki value of `O=C(O)c1[nH]c2cc(Cl)ccc2c1CCCOc1cccc2c1CCCC2` ?
0.066

Under Induced myeloid leukemia cell differentiation protein Mcl-1 (Homo sapiens): Ki value of `Cc1cc(OCCCn2c(C(=O)O)cc3ccccc32)ccc1Cl` ?
1.2

Request: Ki, test system Induced myeloid leukemia cell differentiation protein Mcl-1 (Homo sapiens), entry `O=C(O)c1cc2ccccc2n1CCCOc1cccc2ccccc12`
0.47

// lookup Ki | system=Induced myeloid leukemia cell differentiation protein Mcl-1 (Homo sapiens) | key= `O=C(O)c1oc2ccccc2c1CCCc1cccc2ccccc12`
14.6

What measured Ki is associated with `O=C(O)c1sc2ccccc2c1CCCc1cccc2ccccc12` on Induced myeloid leukemia cell differentiation protein Mcl-1 (Homo sapiens)?
9.6

Any idea what Ki came out for `Cc1cc(OCC(=O)O)ccc1Cl` on Induced myeloid leukemia cell differentiation protein Mcl-1 (Homo sapiens)?
103

====

pKi: −log10 of the molar value.
Recorded below: pKi, system UniProtKB Q07817.

What does the data say about its pKi? Entry: `Cc1cc(OCCCc2c(C(=O)O)[nH]c3ccccc23)cc(C)c1Cl`
< 4.82

I would be grateful if you could share the reported pKi for `Cc1cc(OCCCc2c(C(=O)O)n(C)c3ccccc23)cc(C)c1Cl` .
< 4.82

Looking for the measured pKi of `Cc1cc(OCCCc2c(C(=O)O)[nH]c3cc(Cl)ccc23)ccc1Cl` , can you help?
< 4.82

# get_value(readout='pKi', item= `Cn1c(C(=O)O)c(CCCOc2cccc3ccccc23)c2ccccc21` )
< 4.82

Value lookup for pKi; key = `O=C(O)c1sc2cccc(Cl)c2c1Cl`
< 3.00

Form field: reported pKi of `Cc1c(C(=O)O)oc2c(C)cccc12`
< 3.00

====

pKi: −log10 of the molar value.
Give measured pKi for each item. Keep answers brief.

Short answer please: pKi, Bcl-2-like protein 1 (Homo sapiens, UniProt Q07817), entry `Cc1cccc2c(-c3ccccc3)c(C(=O)O)[nH]c12`
< 3.00

Field: pKi (Bcl-2-like protein 1 (Homo sapiens, UniProt Q07817)). Entry: `Cc1ccc2c(Cl)c(C(=O)O)sc2c1`
3.64

What value of pKi on Bcl-2-like protein 1 (Homo sapiens, UniProt Q07817) does `Cc1cc(OCCC(=O)O)cc(C)c1Cl` have?
< 3.00

Look up pKi with Bcl-2-like protein 1 (Homo sapiens, UniProt Q07817) for this compound: `Cc1cc(OCCCc2c(C(=O)O)[nH]c3ccccc23)ccc1Cl`
Sequence (Q07817 whole entry): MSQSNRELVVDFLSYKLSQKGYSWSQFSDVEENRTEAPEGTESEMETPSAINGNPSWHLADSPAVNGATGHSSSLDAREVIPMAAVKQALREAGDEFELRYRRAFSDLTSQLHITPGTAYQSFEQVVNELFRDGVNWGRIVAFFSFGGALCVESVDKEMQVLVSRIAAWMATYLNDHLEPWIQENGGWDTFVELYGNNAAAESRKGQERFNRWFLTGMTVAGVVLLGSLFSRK
< 4.82
